The reported numbers originate from PubChem BioAssay AID2685.

Experiment: qHTS Assay for Lipid Storage Modulators in Drosophila S3 Cells
Settings: BODIPY lipid droplet fluorescence, 18-24 h, cells fed with added oleic acid; series mostly up to 46.1 µM
Screen size: about 320,000 compounds; about 2,100 (0.66%) were called active. Inconclusive results (about 53%) are left out. Calls come from the whole dose curve; as a rule, active = well fitted inhibition curve with a large enough effect in the signal ratio, with a control signal flat (not every such curve was filed as active); inconclusive = small, poorly fitted or top-dose-only effect, or effect the other way, or a change in a side signal; inactive = flat fitted curve, though single readings scatter; the % refers to the signal ratio. The list comes from a sample in which actives are over-represented; it also holds close analogues and randomly drawn compounds.
Lab note: assign the record to one of True for active, False for inactive

Request: Called result for COc1ccc([C@@H]2C[C@H](c3ccccc3)Oc3cc(OC)c(OC)c(OC)c32)cc1
Response: True

Request: Now the same for CCOc1ccc(OCC)c(S(=O)(=O)NCc2ccccn2)c1
Response: False

Request: Now the same for COc1ccc(O)c(-c2cc(-c3ccccc3Cl)[nH]n2)c1
Response: True

Request: Now the same for O=C(Nc1cccc(NC(=O)c2ccc(Br)o2)n1)c1ccc(Br)o1
Response: False

Request: Now the same for O=C(O)c1oc2ccc(Br)cc2c1-n1cccc1
Response: False

Request: Now the same for COc1ccc(O)c(-c2cc(-c3ccccc3[N+](=O)[O-])[nH]n2)c1
Response: False

Request: Now the same for COc1ccc(C2CC(O)(c3ccccc3)Oc3cc(OC)cc(OC)c32)cc1 (stereo not given)
Response: False

Request: Now the same for N#C/C(=C\c1ccc(-c2ccc(F)cc2)o1)C(=O)Nc1nc(-c2cccs2)cs1
Response: False

Request: Now the same for COc1ccc([C@@H]2C[C@@H](c3ccccc3)Oc3cc(OC)c(OC)c(OC)c32)cc1
Response: False

Request: Now the same for CCOC(=O)N1CCN(C(=O)c2ccc3nc(N4CCCCC4)sc3c2)CC1
Response: False
